These data points were gathered from patent US20230339871A1.

Catalogue of IC50 readings, one per entry.
target: recombinant human full-length HSD17B13 protein (Homo sapiens, UniProt Q7Z5P4); construct: recombinant human full-length HSD17B13 protein; 6xHis (C); test: HSD17B13 96 luminescence inhibition assay (NAD(P)H-Glo)
Sequence (Q7Z5P4 20-300): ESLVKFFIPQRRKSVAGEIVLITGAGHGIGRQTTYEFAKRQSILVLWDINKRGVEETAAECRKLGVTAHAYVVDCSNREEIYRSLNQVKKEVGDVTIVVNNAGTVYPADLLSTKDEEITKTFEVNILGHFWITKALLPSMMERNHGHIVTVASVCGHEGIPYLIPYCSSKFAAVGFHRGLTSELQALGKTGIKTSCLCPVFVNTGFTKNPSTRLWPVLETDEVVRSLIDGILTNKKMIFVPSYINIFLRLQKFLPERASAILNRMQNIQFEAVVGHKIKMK

Some solved entries appear below for comparison.
Compound | Reported Measurement
COc1ccc(CN2C(=O)S/C(=C\c3c(F)cc(F)c(O)c3F)C2=O)cn1 [Compound 23] | 1 to 5 µM
COc1cccc(CNC(=O)c2ccc3cc(F)c(O)c(F)c3n2)c1 [Compound 39] | 1 to 5 µM
O=C1S/C(=C\c2ccc3nn[nH]c3c2)C(=O)N1Cc1cccc(O)c1 [Compound 38] | ≤ 1 µM
COc1cc(CN2C(=O)S/C(=C\c3c(F)cc(F)c(O)c3F)C2=O)ccn1 [Compound 22] | ≤ 1 µM
O=C1O/C(=C\c2ccc(F)c(O)c2)C(=O)N1CC1CCOCC1 [Compound 13] | 1 to 5 µM

Challenge: What IC50 value was documented for this compound, O=C(c1ccc(F)c(O)c1)c1ccc(-c2ccc(F)c(O)c2F)s1 [Compound 28] ?
Response given: 1 to 5 µM

Challenge: Which IC50 value is on record for O=C1S/C(=C\c2ccc(F)c(O)c2)C(=O)N1CC1CCOCC1 [Compound 14] ?
Response given: > 5 µM

Challenge: // returns reported IC50 for input O=C1S/C(=C\c2ccc(F)c(O)c2)C(=O)N1Cc1ccc(F)c(F)c1 [Compound 2]
Response given: 1 to 5 µM

Challenge: Quick one: IC50 of N#Cc1cccc(CNC(=O)c2ccc3cc(F)c(O)cc3n2)c1 [Compound 27] ?
Response given: > 5 µM

Challenge: # input compound: O=C(NCc1cccc(-c2nnn[nH]2)c1)c1ccc2cc(F)c(O)cc2n1 [Compound 25] ; wanted: its IC50
Response given: > 5 µM

Challenge: May I ask what IC50 has been recorded for O=C1S/C(=C\c2cc(O)c(F)c(F)c2)C(=O)N1Cc1cccc(O)c1 [Compound 7] ?
Response given: 1 to 5 µM

Challenge: # input compound: O=C1S/C(=C\c2ccc(F)c(O)c2)C(=O)N1Cc1cccc(O)c1 [Compound 11] ; wanted: its IC50
Response given: 1 to 5 µM

Challenge: Find the recorded IC50 belonging to O=C1S/C(=C\c2ccc(F)c(O)c2)C(=O)N1Cc1cccc(-c2c[nH]nn2)c1 [Compound 15] and report it.
Response given: 1 to 5 µM

Challenge: Requested read-out: IC50. Entry: NS(=O)(=O)c1cccc(CN2C(=O)S/C(=C\c3c(F)cc(F)c(O)c3F)C2=O)c1 [Compound 34]
Response given: ≤ 1 µM

Challenge: // query IC50 value for entry O=C(c1ccc(-c2ccc(F)c(O)c2F)s1)c1ccc(F)c(O)c1F [Compound 32]
Response given: 1 to 5 µM

Challenge: Consider the compound shown here: O=C1S/C(=C\c2ccc(F)c(O)c2)C(=O)N1Cc1cccc(OC(F)(F)F)c1 [Compound 16] What is its recorded IC50?
Response given: > 5 µM

Challenge: Reported IC50, compound N#Cc1cccc(CN2C(=O)S/C(=C\c3ccc(F)c(O)c3)C2=O)c1 [Compound 19] : ____
Response given: 1 to 5 µM

Challenge: What value of IC50 has been recorded for this entry: O=C1S/C(=C\c2c(F)cc(F)c(O)c2F)C(=O)N1Cc1cccc(O)c1 [Compound 4]
Response given: 1 to 5 µM
